SYSTEM: human T-bet (Homo sapiens, UniProt Q9UL17)
Construct: expressed in transfected cells; host or cells: engineered HEK cells (HEKT-bet)
Sequence (Q9UL17 1-535): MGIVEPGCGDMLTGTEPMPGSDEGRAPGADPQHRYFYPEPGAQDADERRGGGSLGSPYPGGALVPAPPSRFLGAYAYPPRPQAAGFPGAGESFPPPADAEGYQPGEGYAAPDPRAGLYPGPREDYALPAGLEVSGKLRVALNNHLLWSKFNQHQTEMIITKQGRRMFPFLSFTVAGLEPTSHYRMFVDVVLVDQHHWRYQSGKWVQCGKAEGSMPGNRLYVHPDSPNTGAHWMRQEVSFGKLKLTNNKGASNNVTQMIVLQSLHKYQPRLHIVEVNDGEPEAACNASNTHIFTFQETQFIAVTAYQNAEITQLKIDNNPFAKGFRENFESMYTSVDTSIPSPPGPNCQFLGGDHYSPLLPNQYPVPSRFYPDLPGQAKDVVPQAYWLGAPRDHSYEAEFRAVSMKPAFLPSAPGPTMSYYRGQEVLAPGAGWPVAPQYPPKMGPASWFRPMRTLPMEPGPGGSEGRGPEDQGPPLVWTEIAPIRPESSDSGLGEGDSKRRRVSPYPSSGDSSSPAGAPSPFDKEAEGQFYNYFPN
ASSAY DETAILS: HEKT-bet-luc assay (T-bet dependent luciferase reporter in engineered HEK cells)
Assay type: cell-based
TEST SETTINGS: Table 4; HEKT-bet cells, compound 24 hours; IC50 normalized to reference ER-213038; read-out: IC50
pIC50: −log10 of the molar value.
MEASUREMENT LABEL: pIC50

[in] Could you tell me which pIC50 is on file for "COCCN1C(=O)N(Cc2ccc(OC(F)(F)F)cc2)C(=O)C12CCN(Cc1ccccc1)CC2" ?
[out] 6.40

[in] How about "COCCN1C(=O)N(Cc2cccc(OC)c2)C(=O)C12CCN(Cc1cccc3c1OCCO3)CC2" ?
[out] 6.25

[in] How about "COc1cccc(CN2C(=O)N(Cc3cccc(OC)c3)C3(CCN(Cc4ccccc4)CC3)C2=O)c1" ?
[out] 6.23

[in] How about "COc1cccc(CN2C(=O)N(Cc3ccccc3)C3(CCN(Cc4cc(OC)cc(OC)c4)CC3)C2=O)c1" ?
[out] 6.24
